# System: BS1723 B. subtilis BS168 WT wild type
# Assay Notes: broth dilution MIC, B. subtilis BS1723
# Assay type: cell-based
# Condition Label: Bacillus subtilis, BS1723 B. subtilis BS168 WT wild type; read-out: MIC
Assay Metric: MIC

CC[C@H]1OC(=O)[C@H](C)C(=O)[C@H](C)[C@@H](O[C@@H]2OC(C)CC(N(C)C)C2O)[C@](C)(OC)C[C@@H](C)CN[C@H](C)[C@H]2N(CCCCn3cc(-c4nc5ccccc5s4)nn3)C(=O)O[C@]12C (stereo partly shown) tested on BS1723 B. subtilis BS168 WT wild type gave MIC: 2 µg/mL

CC[C@H]1OC(=O)[C@H](C)C(=O)C[C@@H](O[C@@H]2OC(C)CC(N(C)C)C2O)[C@](C)(OC)C[C@@H](C)CN[C@H](C)[C@H]2N(CCCCn3cc(-c4ccccn4)nn3)C(=O)O[C@]12C (stereo partly shown) tested on BS1723 B. subtilis BS168 WT wild type gave MIC: > 32 µg/mL

CC[C@H]1OC(=O)[C@H](C)C(=O)C[C@@H](O[C@@H]2OC(C)CC(N(C)C)C2O)[C@](C)(OC)C[C@@H](C)CN(C(C)=O)[C@H](C)[C@H]2N(CCCCn3cc(-c4ccccn4)nn3)C(=O)O[C@]12C (stereo partly shown) tested on BS1723 B. subtilis BS168 WT wild type gave MIC: > 32 µg/mL

CC[C@H]1OC(=O)[C@H](C)C(=O)C[C@@H](O[C@@H]2OC(C)CC(N(C)C)C2O)[C@](C)(OC)C[C@@H](C)CN[C@H](C)[C@H]2N(CCCCn3cc(-c4nc5ccccc5s4)nn3)C(=O)O[C@]12C (stereo partly shown) tested on BS1723 B. subtilis BS168 WT wild type gave MIC: > 32 µg/mL

###

Exercise: state measured MIC for each of the compounds provided.
# Test system: H. influenzae strains
# Assay Notes: MIC against H. influenzae strains (Table M8)
# Format: cell-based
# Condition Label: Haemophilus influenzae, H. influenzae 49247; read-out: MIC H. influenzae (49247)
Respond with the figure and its unit, in that order.

MIC measured on CC[C@H]1OC(=O)[C@H](C)C(=O)[C@H](C)[C@@H](O[C@@H]2OC(C)CC(N(C)C)C2O)[C@](C)(OC)CC(C)N[C@H](C)[C@H]2N(CCCCn3cc(-c4cccc(N)c4)nn3)C(=O)O[C@]12C (single isomer, unassigned) = 16 µg/mL

MIC measured on CC[C@H]1OC(=O)C(C)C(=O)[C@H](C)[C@@H](O[C@@H]2OC(C)CC(N(C)C)C2O)[C@](C)(OC)C[C@@H](C)C(=O)N[C@H](C)[C@H]2N(CCCCn3cc(-c4cccc(N)c4)nn3)C(=O)O[C@]12C (stereo partly shown) = 8 µg/mL

MIC measured on C=CC[C@H]1C(=O)O[C@H](CC)[C@@]2(C)OC(=O)N(CCCCn3cc(-c4cccc(N)c4)nn3)[C@@H]2[C@@H](C)NC[C@H](C)C[C@@](C)(OC)[C@H](O[C@@H]2OC(C)CC(N(C)C)C2O)[C@@H](C)C1=O (stereo partly shown) = 2 µg/mL

MIC measured on CC[C@H]1OC(=O)C(C)(F)C(=O)[C@@H](C)[C@@H](O[C@@H]2OC(C)CC(N(C)C)C2O)[C@](C)(OC)C[C@@H](C)CN[C@H](C)[C@H]2N(CCCCn3cc(-c4cccc(N)c4)nn3)C(=O)O[C@]12C (stereo partly shown) = 8 µg/mL

Cited source for all entries: patent US9982005B2
